Tested on: Escherichia coli K12 C600 IAM 1264
Assay: Antibacterial activity, agar-dilution MIC, organism No. 6
Type: cell-based
Settings: Escherichia coli, IAM1264; Organism No. 6, bouillon-agar; read-out: Minimum Inhibitory Concentration
Give measured MIC for each item. Keep answers brief.

Would you kindly share the measured MIC for [C-]#[N+]C12CC3(/C=C/C(=O)OCC(=O)c4ccc(C)cc4)OC3C1O2 (stereo not shown) ?
> 100 µg/mL

Would you kindly share the measured MIC for [C-]#[N+]C12CC3(/C=C/C(=O)Nc4nc5ccccc5s4)OC3C1O2 (stereo not shown) ?
> 200 µg/mL

Would you kindly share the measured MIC for [C-]#[N+]C12CC3(/C=C/C(=O)N4CCC[C@H]4C(=O)OCc4ccccc4)OC3C1O2 (stereo partly shown) ?
> 200 µg/mL

Would you kindly share the measured MIC for [C-]#[N+]C12CC3(/C=C/C(=O)Nc4nnc(C)s4)OC3C1O2 (stereo not shown) ?
> 200 µg/mL

----------
Give measured log10 of MIC for each item. Keep answers brief.
Test system: Proteus morganii IFO 3848
Assay: Antibacterial activity, agar-dilution MIC, organism No. 18
Format: cell-based
Conditions: Morganella morganii, IFO3848; Organism No. 18, bouillon-agar; read-out: Minimum Inhibitory Concentration
All values: base-10 log of MIC in µg/mL.

Would you kindly share the measured log10 of MIC for [C-]#[N+]C12CC3(/C=C/C(=O)Nc4ccccc4N)OC3C1O2 (stereo not drawn) ?
0.50

Would you kindly share the measured log10 of MIC for [C-]#[N+]C12CC3(/C=C/C(=O)Nc4cccc(C(=O)OC)c4)OC3C1O2 (stereo not drawn) ?
0.19

Would you kindly share the measured log10 of MIC for [C-]#[N+]C12CC3(/C=C/C(=O)OCC)OC3C1O2 (stereo not drawn) [Compound No. 2, ethyl β-substituted acrylate] ?
0.80

Would you kindly share the measured log10 of MIC for [C-]#[N+]C12CC3(/C=C/C(=O)NOCc4ccccc4)OC3C1O2 (stereo not drawn) ?
-0.11

Would you kindly share the measured log10 of MIC for [C-]#[N+]C12CC3(/C=C/C(=O)NOC)OC3C1O2 (stereo not drawn) ?
1.40

Would you kindly share the measured log10 of MIC for [C-]#[N+]C12CC3(/C=C/C(=O)Nc4ccccc4Cl)OC3C1O2 (stereo not drawn) ?
0.50

Would you kindly share the measured log10 of MIC for [C-]#[N+]C12CC3(/C=C/C(=O)Nc4nnc(C)s4)OC3C1O2 (stereo not drawn) ?
1.10

Would you kindly share the measured log10 of MIC for [C-]#[N+]C12CC3(/C=C/C(=O)N4CCCC4)OC3C1O2 (stereo not drawn) ?
1.70

Would you kindly share the measured log10 of MIC for [C-]#[N+]C12CC3(/C=C/C(=O)OCc4ccccc4)OC3C1O2 (stereo not drawn) [Compound No. 10, benzyl β-substituted acrylate] ?
-0.41

Would you kindly share the measured log10 of MIC for [C-]#[N+]C12CC3(/C=C/C(=O)Nc4ccc(Cl)cc4)OC3C1O2 (stereo not drawn) ?
0.50

Would you kindly share the measured log10 of MIC for [C-]#[N+]C12CC3(/C=C/C(=O)OCC(C)C)OC3C1O2 (stereo not drawn) ?
0.50

Would you kindly share the measured log10 of MIC for [C-]#[N+]C12CC3(/C=C/C(=O)Nc4cccc(C)c4)OC3C1O2 (stereo not drawn) ?
1.10

Would you kindly share the measured log10 of MIC for [C-]#[N+]C12CC3(/C=C/C(=O)N[C@@H](CC(=O)OC)C(=O)OC)OC3C1O2 (stereo partly drawn) ?
1.40

----------
System: Pseudomonas aeruginosa PAO 1
Assay: Antibacterial activity, agar-dilution MIC, organism No. 17
Type: cell-based
Conditions: Pseudomonas aeruginosa, PAO1; Organism No. 17, bouillon-agar; read-out: Minimum Inhibitory Concentration
observation type: MIC

Would you kindly share the measured MIC for [C-]#[N+]C12CC3(/C=C/C(=O)Nc4ccc(C(=O)O)cc4)OC3C1O2 (centres unmarked) ?
> 200 µg/mL

Would you kindly share the measured MIC for [C-]#[N+]C12CC3(/C=C/C(=O)OCC(C)C)OC3C1O2 (centres unmarked) ?
> 200 µg/mL

Would you kindly share the measured MIC for [C-]#[N+]C12CC3(/C=C/C(=O)N4CCCC4)OC3C1O2 (centres unmarked) ?
> 200 µg/mL

Would you kindly share the measured MIC for [C-]#[N+]C12CC3(/C=C/C(=O)Nc4ccccc4C)OC3C1O2 (centres unmarked) ?
> 200 µg/mL

Would you kindly share the measured MIC for [C-]#[N+]C12CC3(/C=C/C(=O)Nc4cc(C(=O)OC)ccc4OC)OC3C1O2 (centres unmarked) ?
> 200 µg/mL

Would you kindly share the measured MIC for [C-]#[N+]C12CC3(/C=C/C(=O)Nc4ccc(C)cc4)OC3C1O2 (centres unmarked) ?
> 200 µg/mL

Would you kindly share the measured MIC for [C-]#[N+]C12CC3(/C=C/C(=O)N(C(=O)NC4CCCCC4)C4CCCCC4)OC3C1O2 (centres unmarked) ?
> 100 µg/mL

Would you kindly share the measured MIC for [C-]#[N+]C12CC3(/C=C/C(=O)Nc4ccc5c(c4)OCO5)OC3C1O2 (centres unmarked) ?
> 200 µg/mL

Would you kindly share the measured MIC for [C-]#[N+]C12CC3(/C=C/C(=O)N[C@@H](CCC(=O)OC)C(=O)OC)OC3C1O2 (some centres unmarked) ?
> 200 µg/mL

Would you kindly share the measured MIC for [C-]#[N+]C12CC3(/C=C/C(=O)Nc4ccccc4C(N)=O)OC3C1O2 (centres unmarked) ?
> 200 µg/mL

Would you kindly share the measured MIC for [C-]#[N+]C12CC3(/C=C/C(=O)Nc4ccc(C(F)(F)F)cc4)OC3C1O2 (centres unmarked) ?
> 200 µg/mL

Would you kindly share the measured MIC for [C-]#[N+]C12CC3(/C=C/C(=O)N[C@@H](C(=O)OCc4ccccc4)C(C)C)OC3C1O2 (some centres unmarked) ?
> 200 µg/mL

Would you kindly share the measured MIC for [C-]#[N+]C12CC3(/C=C/C(=O)Nc4ccc(S(N)(=O)=O)cc4)OC3C1O2 (centres unmarked) ?
> 200 µg/mL

Would you kindly share the measured MIC for [C-]#[N+]C12CC3(/C=C/C(=O)OCC)OC3C1O2 (stereo not drawn) [Compound No. 2, ethyl β-substituted acrylate] ?
> 200 µg/mL

Would you kindly share the measured MIC for [C-]#[N+]C12CC3(/C=C/C(=O)ON4C(=O)CCC4=O)OC3C1O2 (centres unmarked) ?
> 200 µg/mL

Would you kindly share the measured MIC for [C-]#[N+]C12CC3(/C=C/C(=O)OCc4ccccc4[N+](=O)[O-])OC3C1O2 (centres unmarked) ?
> 200 µg/mL

Would you kindly share the measured MIC for [C-]#[N+]C12CC3(/C=C/C(=O)Nc4ccc(F)cc4)OC3C1O2 (centres unmarked) ?
> 200 µg/mL

Would you kindly share the measured MIC for [C-]#[N+]C12CC3(/C=C/C(=O)Nc4cccc(OC)c4)OC3C1O2 (centres unmarked) ?
> 200 µg/mL

Would you kindly share the measured MIC for [C-]#[N+]C12CC3(/C=C/C(=O)NC4C(=O)N5C(C(=O)OCC(=O)c6ccc(Br)cc6)=C(C)CSC45)OC3C1O2 (centres unmarked) ?
> 100 µg/mL

Would you kindly share the measured MIC for [C-]#[N+]C12CC3(/C=C/C(=O)Nc4ccc(Cl)cc4)OC3C1O2 (centres unmarked) ?
> 200 µg/mL

Would you kindly share the measured MIC for [C-]#[N+]C12CC3(/C=C/C(N)=O)OC3C1O2 (centres unmarked) ?
200 µg/mL

Would you kindly share the measured MIC for [C-]#[N+]C12CC3(/C=C/C(=O)OCC(=O)c4ccccc4)OC3C1O2 (centres unmarked) ?
> 100 µg/mL

Would you kindly share the measured MIC for [C-]#[N+]C12CC3(/C=C/C(=O)Nc4ccc(C(C)=O)cc4)OC3C1O2 (centres unmarked) ?
> 200 µg/mL

----------
Tested on: Enterobacter cloacae 963
Assay: Antibacterial activity, agar-dilution MIC, organism No. 24
Type: cell-based
Settings: Enterobacter cloacae, 963; Organism No. 24, bouillon-agar; read-out: Minimum Inhibitory Concentration
observation type: MIC

Would you kindly share the measured MIC for [C-]#[N+]C12CC3(/C=C/C(=O)Nc4cccc(OC)c4)OC3C1O2 (centres unmarked) ?
> 200 µg/mL

Would you kindly share the measured MIC for [C-]#[N+]C12CC3(/C=C/C(=O)N[C@@H](C(=O)OCc4ccccc4)C(C)C)OC3C1O2 (some centres unmarked) ?
> 200 µg/mL

Would you kindly share the measured MIC for [C-]#[N+]C12CC3(/C=C/C(=O)OCc4cc([N+](=O)[O-])ccc4OC)OC3C1O2 (centres unmarked) ?
> 200 µg/mL

Would you kindly share the measured MIC for [C-]#[N+]C12CC3(/C=C/C(=O)NC4CCCCC4)OC3C1O2 (centres unmarked) ?
> 200 µg/mL

Would you kindly share the measured MIC for [C-]#[N+]C12CC3(/C=C/C(=O)NOC)OC3C1O2 (centres unmarked) ?
> 200 µg/mL

Would you kindly share the measured MIC for [C-]#[N+]C12CC3(/C=C/C(=O)Nc4ccc(C(C)=O)cc4)OC3C1O2 (centres unmarked) ?
> 200 µg/mL

Would you kindly share the measured MIC for [C-]#[N+]C12CC3(/C=C/C(=O)N4CCC[C@H]4C(=O)OCc4ccccc4)OC3C1O2 (some centres unmarked) ?
> 200 µg/mL

Would you kindly share the measured MIC for [C-]#[N+]C12CC3(/C=C/C(=O)Nc4ccc(OC(C)C)cc4)OC3C1O2 (centres unmarked) ?
> 200 µg/mL

Would you kindly share the measured MIC for [C-]#[N+]C12CC3(/C=C/C(=O)Nc4cccc(C(F)(F)F)c4)OC3C1O2 (centres unmarked) ?
> 200 µg/mL

Would you kindly share the measured MIC for [C-]#[N+]C12CC3(/C=C/C(=O)Nc4ccc(N)cc4)OC3C1O2 (centres unmarked) ?
> 200 µg/mL

Would you kindly share the measured MIC for [C-]#[N+]C12CC3(/C=C/C(=O)OCc4cccc(OC)c4)OC3C1O2 (centres unmarked) ?
> 100 µg/mL

Would you kindly share the measured MIC for [C-]#[N+]C12CC3(/C=C/C(=O)OCC(=O)c4ccccc4)OC3C1O2 (centres unmarked) ?
> 100 µg/mL

Would you kindly share the measured MIC for [C-]#[N+]C12CC3(/C=C/C(=O)N4CCOCC4)OC3C1O2 (centres unmarked) ?
> 200 µg/mL

Would you kindly share the measured MIC for [C-]#[N+]C12CC3(/C=C/C(=O)Nc4ccc(OCCC)cc4)OC3C1O2 (centres unmarked) ?
> 200 µg/mL

Would you kindly share the measured MIC for [C-]#[N+]C12CC3(/C=C/C(=O)Nc4ccccc4Cl)OC3C1O2 (centres unmarked) ?
> 200 µg/mL

Would you kindly share the measured MIC for [C-]#[N+]C12CC3(/C=C/C(=O)NOCc4ccccc4)OC3C1O2 (centres unmarked) ?
> 200 µg/mL

Would you kindly share the measured MIC for [C-]#[N+]C12CC3(/C=C/C(=O)OCc4ccc([N+](=O)[O-])cc4)OC3C1O2 (centres unmarked) ?
> 100 µg/mL

Would you kindly share the measured MIC for [C-]#[N+]C12CC3(/C=C/C(=O)Nc4cccc(C)c4)OC3C1O2 (centres unmarked) ?
> 200 µg/mL

Would you kindly share the measured MIC for [C-]#[N+]C12CC3(/C=C/C(=O)OCC(=O)c4ccc([N+](=O)[O-])cc4)OC3C1O2 (centres unmarked) ?
> 100 µg/mL

Would you kindly share the measured MIC for [C-]#[N+]C12CC3(/C=C/C(=O)Nc4nccs4)OC3C1O2 (centres unmarked) ?
> 200 µg/mL
